Origin of values: the supplement of paper PMC10126150

# System: ATP;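 further: ATP exposure 15 min at 22 °C before imaging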
# ASSAY_OVERVIEW: switch fluorescence ratio, 500 uM ATP over buffer (Cy3 cluster intensity, sum of 5 cycles each) (fold (ratio)); higher = stronger signal-on switching upon ATP binding; sequences stand for … in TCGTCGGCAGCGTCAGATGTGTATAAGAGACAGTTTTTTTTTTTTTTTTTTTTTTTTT…TC
# CONDITION_LABEL: aptamer strand: ATP DNA aptamer (quencher-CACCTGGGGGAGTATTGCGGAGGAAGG + anchor), 100 nM annealed; ATP concentration: 500 uM
READOUT_TYPE: switch fluorescence ratio
Answer with a bare number; do not write a unit.

These solved cases illustrate the format of a correct answer.
ACAGTCGGGC; 1
AAACGGTTAC; 1.24
ACTAGGAAAA; 0.997

// map CAAACTGGCA to recorded switch fluorescence ratio (system: ATP);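 further: ATP exposure 15 min at 22 °C before imaging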
1.05

# query: switch fluorescence ratio | item AAGGCCAGGT | system: ATP;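 further: ATP exposure 15 min at 22 °C before imaging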
1.17

Short answer please: switch fluorescence ratio, ATP, entry AAGTAGGTAG
0.979

Can you look up switch fluorescence ratio on ATP for GTGTCCGGTA ?
0.983

Could you share what switch fluorescence ratio was measured for TAGGGATGGT , tested on ATP?;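 further: ATP exposure 15 min at 22 °C before imaging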
0.979

State its switch fluorescence ratio on ATP: TTCACATTGG
1.01

Record AGACATGTTT : what is its switch fluorescence ratio with ATP?
0.981
